System: 324938-238-R-J1-PDC complex spheroid viability;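 note: spheroids also contain HUVEC and human MSCs and agents combined with iadademstat; spheroids exposed to agents for 7 days before readout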
test.name: Anticancer human tumor 324938-238-R-J1-PDC patient-derived bladder carcinoma cell line growth inhibition
setup.conditions: second compound 1 µM; first compound 0.316 µM; hits give low values
# key: entry, value: viability, T/C

Examples with their reported viability, T/C follow.
1. O=C(c1cc(Cc2n[nH]c(=O)c3ccccc23)ccc1F)N1CCN(C(=O)C2CC2)CC1 + NC1CCC(NC2CC2c2ccccc2)CC1 = 80%
2. CC1(C)CCC(CN2CCN(c3ccc(C(=O)NS(=O)(=O)c4ccc(NCC5CCOCC5)c([N+](=O)[O-])c4)c(Oc4cnc5[nH]ccc5c4)c3)CC2)=C(c2ccc(Cl)cc2)C1 + NC1CCC(NC2CC2c2ccccc2)CC1 = 68.7%

Param readout = viability, T/C; param system = 324938-238-R-J1-PDC complex spheroid viability; param query = CC1COCCN1c1cc(-c2ccnn2C)c2ccnc(-c3ccn[nH]3)c2n1 (stereo not drawn) + NC1CCC(NC2CC2c2ccccc2)CC1 ; response: value;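 note: spheroids also contain HUVEC and human MSCs and agents combined with iadademstat; spheroids exposed to agents for 7 days before readout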
18.7%

Same read-out for CC(C)c1c(-c2ccccc2)nc2c(C#N)c[nH]n2c1=O + NC1CC1c1ccc(-c2cccc(O)c2)cc1 ?
85.4%
